Data provenance is patent US20250296953A1.

# Test system: 60 different human tumor cell lines
# STUDY CONDITIONS: read-out: LC50; OVCAR-4 (Ovarian Cancer), five dose
READOUT: CC50 (µM)
Give bare numbers, in µM.

Please look up its CC50: `C[C@]12CCc3nc(N)sc3C1=CC[C@@H]1[C@@H]2CC[C@]2(C)C(=NNC(N)=O)CC[C@@H]12`
5.78

---

I'd appreciate it if you could supply GI50 values for the items below.
# Tested on: 60 different human tumor cell lines
# ASSAY DETAILS: cells
# STUDY CONDITIONS: MDA-MB-231
Numbers only, in µM.

INSERT INTO results (compound, tested_target, readout_unit, readout_value) VALUES
  ('C[C@]12CC[C@H]3[C@@H](CC=C4c5sc(-c6ccc(O)cc6)nc5CC[C@@]43C)[C@@H]1CC[C@@H]2O [III.5]', '60 different human tumor cell lines', 'µM', 6.98);

Please report GI50 for every entry that follows.
1. C[C@]12CC[C@H]3[C@@H](CC=C4c5sc(Nc6ccccc6)nc5CC[C@@]43C)[C@@H]1CC[C@@H]2O [IIIa.10]
2. C[C@]12CCc3sc(Nc4cccc(O)c4)nc3C1=CC[C@@H]1[C@@H]2CC[C@]2(C)C(=O)CC[C@@H]12 [IIa.17]
3. C[C@]12CCc3sc(NCCc4ccccc4)nc3C1=CC[C@@H]1[C@@H]2CC[C@]2(C)C(=O)CC[C@@H]12 [IIa.2]

1. 1.99
2. 13.4
3. 3.4

---

# Test system: 60 different human tumor cell lines
# ASSAY DETAILS: cells
# STUDY CONDITIONS: SNB-19
READOUT: log10(GI50) (log10 of the value in µM)
// stored as log10 of GI50 expressed in µM

INSERT INTO measurements (structure_as_smiles, readout, readout_value) VALUES
  ('C[C@]12CCc3sc(Nc4ccc(OC(F)(F)F)cc4)nc3C1=CC[C@@H]1[C@@H]2CC[C@]2(C)C(=O)CC[C@@H]12', 'log10(GI50)', 0.33),
  ('C[C@]12CCc3sc(NCCc4ccccc4)nc3C1=CC[C@@H]1[C@@H]2CC[C@]2(C)C(=O)CC[C@@H]12', 'log10(GI50)', 1.99),
  ('C[C@]12CCc3sc(Nc4cccc(O)c4)nc3C1=CC[C@@H]1[C@@H]2CC[C@]2(C)C(=O)CC[C@@H]12', 'log10(GI50)', 1.11),
  ('C[C@]12CC[C@H]3[C@@H](CC=C4c5sc(Nc6ccccc6)nc5CC[C@@]43C)[C@@H]1CC[C@@H]2O', 'log10(GI50)', 0.27);

Given the entry `C[C@]12CC[C@H]3[C@@H](CC=C4c5sc(-c6ccc(O)cc6)nc5CC[C@@]43C)[C@@H]1CC[C@@H]2O` , report its measured log10(GI50).
0.90

---

# Tested on: SK-MEL-28
# ASSAY DETAILS: Melanoma cytotoxicity assay (resazurin)
# Format: cell-based
# STUDY CONDITIONS: SK-MEL-28 melanoma cells, 24 hours with compound, resazurin; concentration not given
Please provide measured SK-MEL-28 (% inhibition) for the entries that follow.

For orientation, consider the following solved cases.
INSERT INTO results (structure_as_smiles, tested_target, readout_value) VALUES
  ('C[C@]12CCc3sc(Nc4cccc(O)c4)nc3C1=CC[C@@H]1[C@@H]2CC[C@]2(C)C(=O)CC[C@@H]12', 'SK-MEL-28', '87%'),
  ('COc1ccccc1Nc1nc2c(s1)CC[C@@]1(C)C2=CC[C@@H]2[C@@H]1CC[C@]1(C)C(=O)CC[C@@H]21', 'SK-MEL-28', '13%'),
  ('C[C@]12CCc3sc(Nc4cccc(C(=O)O)c4)nc3C1=CC[C@@H]1[C@@H]2CC[C@]2(C)C(=O)CC[C@@H]12', 'SK-MEL-28', '73%');

Below is a list of compounds. For each, state its recorded SK-MEL-28 (% inhibition).
1. C[C@]12CCc3sc(Nc4ccccn4)nc3C1=CC[C@@H]1[C@@H]2CC[C@]2(C)C(=O)CC[C@@H]12
2. C[C@]12CCc3sc(NCCc4ccccc4)nc3C1=CC[C@@H]1[C@@H]2CC[C@]2(C)C(=O)CC[C@@H]12
3. C[C@]12CCc3sc(Nc4ccc(F)cc4F)nc3C1=CC[C@@H]1[C@@H]2CC[C@]2(C)C(=O)CC[C@@H]12
4. COc1ccc(Cl)cc1Nc1nc2c(s1)CC[C@@]1(C)C2=CC[C@@H]2[C@@H]1CC[C@]1(C)C(=O)CC[C@@H]21
5. C=CCNc1nc2c(s1)CC[C@@]1(C)C2=CC[C@@H]2[C@@H]1CC[C@]1(C)C(=O)CC[C@@H]21
6. Cc1ccc(Nc2nc3c(s2)CC[C@@]2(C)C3=CC[C@@H]3[C@@H]2CC[C@]2(C)C(=O)CC[C@@H]32)cc1
7. C[C@]12CCc3sc(Nc4ccccc4Cl)nc3C1=CC[C@@H]1[C@@H]2CC[C@]2(C)C(=O)CC[C@@H]12
8. CC(=O)Nc1nc2c(s1)C1=CC[C@@H]3[C@H](CC[C@]4(C)C(=O)CC[C@@H]34)[C@@]1(C)CC2

["93%", "79%", "14%", "95%", "65%", "63%", "88%", "16%"]

For every listed record, write down its SK-MEL-28 (% inhibition).
1. C[C@]12CCc3nc(Nc4ccc(F)cc4)sc3C1=CC[C@@H]1[C@@H]2CC[C@]2(C)C(=O)CC[C@@H]12
2. CN(c1ccccc1)c1nc2c(s1)CC[C@@]1(C)C2=CC[C@@H]2[C@@H]1CC[C@]1(C)C(=O)CC[C@@H]21
3. C[C@]12CCc3nc(Cc4ccccc4)sc3C1=CC[C@@H]1[C@@H]2CC[C@]2(C)C(=O)CC[C@@H]12

90%
60%
98%
